Provide the recorded GI50 for the entries that follow.
- System: HCT-116
- TEST: NCI tumour cell line growth inhibition, 48 h
Active and inactive are the calls of the source. No stated cut-off is given here; in the data, active = GI50 up to about 1.1 µM and inactive = higher. Where a SMILES comes first, the peptide text is derived from it. [ ]: non-standard residue; d: D form. The star is where a group is joined. NMeAc5c = CNC1(C(=O)O)CCCC1; Boc = CC(C)(C)OC(=O)*; OBn = c1ccc(CO*)cc1

Recorded result, COc1cc(C)c(/C=C/C(=O)N2C(=O)OC[C@@H]2c2ccccc2)c(C)c1 , GI50: 89.3 µM (inactive)

Recorded result, CN(C(=O)C(Cc1ccccc1)NC(=O)OC(C)(C)C)C1(C(=O)NC(Cc2ccccc2)C(=O)OCc2ccccc2)CCCC1 (stereo not drawn) (Boc-Phe-[NMeAc5c]-Phe-OBn; configuration not given here) , GI50: 30.6 µM (inactive)

Recorded result, Nc1cc[nH]c(=O)n1 , GI50: > 100 µM (inactive)

Recorded result, CCN(CC)Cc1nc2sc3c(c2c(=O)n1-c1ccccc1)CCCC3 , GI50: 18.7 µM (inactive)

Recorded result, CCCCCCCCCCCCCCCCSS(C)(=O)=O , GI50: 10.6 µM (inactive)

Recorded result, COc1ccc2c(c1)NC1(CCN(CCCC(=O)c3ccc(F)cc3)CC1)N=N2 , GI50: 17.1 µM (inactive)

Recorded result, CCOC(=O)C(=O)NNc1nc2c(s1)C(=O)c1ccccc1C2=O , GI50: 2.68 µM (inactive)

Recorded result, C#CCNC(=O)NC(CCCCNC(=O)OCc1ccccc1)C(=O)OCc1ccccc1 (stereo not given) , GI50: > 100 µM (inactive)

Recorded result, CCCCc1ccc(Nc2cc(=O)n(C)c(=O)[nH]2)cc1 , GI50: 72.6 µM (inactive)

Recorded result, C=C1C(=O)OC2/C=C(/CO)C3(O)CC(O)C(C)(CC(OC(=O)/C(C)=C/C)C12)O3 (stereo not given) , GI50: 6.73 µM (inactive)

====

- Tested on: 786-0
- TEST: NCI tumour cell line growth inhibition, 48 h
Activity calls are given as the source filed them. Rule as the data show it: active = GI50 up to about 1.1 µM and inactive = higher.
Provide the recorded GI50 for the entries that follow.

Recorded result, NCCC(=O)NC(Cc1c[nH]cn1)C(=O)O (configuration not stated) , GI50: > 100 µM (inactive)

Recorded result, Nc1ccn(C2CCC(CO)O2)c(=O)n1 (configuration not stated) , GI50: > 1000 µM (inactive)

Recorded result, Clc1ccc(-c2nnc(-c3cccc4ccccc34)o2)cc1Cl , GI50: > 100 µM (inactive)

Recorded result, Cn1c(N)[n+](C(=O)OCc2ccccc2)c(=O)c2c1ncn2C(=O)OCc1ccccc1 , GI50: 30.1 µM (inactive)

Recorded result, O=C1c2cccc(O)c2C(=O)c2cccc(O)c21 , GI50: > 100 µM (inactive)

Recorded result, C=CC1(c2ccc(Br)cc2)OCCCO1 , GI50: > 100 µM (inactive)

Recorded result, CCCC(=O)NC(Nc1ccc(S(=O)(=O)Nc2nc(C)cc(C)n2)cc1)(C(F)(F)F)C(F)(F)F , GI50: > 100 µM (inactive)

Recorded result, CC(=O)O[C@@H]1[C@@H](O)C2=C3[C@]4(C)[C@@H]1C(C)(C)C(=O)C[C@@H]4[C@]3(O)[C@H](OC(C)=O)[C@@]1(C[C@@H]1C)C2=O , GI50: 15.6 µM (inactive)

Recorded result, CC(=O)c1ccc2c3c1[C@@H]1O[C@@H]1c1cccc(c1-3)[C@@H]1O[C@H]21 , GI50: 5.6 µM (inactive)

Recorded result, O=C1Nc2ccccc2S/C1=C\c1ccc(C(F)(F)F)cc1 , GI50: > 100 µM (inactive)

Recorded result, CC(=O)c1c2c(cc3c1CC1(C3)Cc3cc4c(c(C(=O)O)c3C1)CCC4)CCC2 (configuration not stated) , GI50: 47.2 µM (inactive)

Recorded result, O=C(O)Cn1cc([N+](=O)[O-])c(=O)c2ccccc21 , GI50: > 100 µM (inactive)

Recorded result, c1cc(CCN2CCCCC2)ccn1 , GI50: > 100 µM (inactive)

Recorded result, CCCCn1c(O)nc2c(N)ncnc21 , GI50: > 100 µM (inactive)

Recorded result, CCOC(=O)c1c(NNc2ccccc2)nc2ccccc2c1-c1ccccc1 , GI50: 31.7 µM (inactive)

Recorded result, Cn1c(O)c(C(=O)NC2CCCCC2)c(=O)n(C)c1=S , GI50: 6.15 µM (inactive)

Recorded result, Cc1cc(O)c(C(=O)O)c2c1C(=O)c1c(O)c(OCC(O)C(O)C(O)C(O)CO)c(O)c(O)c1C2=O.NCCNCCO (configuration not stated) , GI50: > 100 µM (inactive)

Recorded result, COc1ccc2nc3c(C(=O)NCCN(C)C)cccc3nc2c1 , GI50: 7 µM (inactive)

Recorded result, Fc1ccc(C2SCc3nc4ccccc4n32)c(F)c1 (configuration not stated) , GI50: > 100 µM (inactive)

Recorded result, Cc1ccsc1/C=N/NC1=NCCN1 , GI50: > 100 µM (inactive)

Recorded result, CCOC(=O)c1c(-c2ccc(Cl)cc2)c(C#N)c(=S)n(C2OC(CO)C(O)C(O)C2O)c1-c1ccccc1 (configuration not stated) , GI50: 26.7 µM (inactive)

Recorded result, COC(=O)C1CC(C=[N+](C)C)=C(SC)N1 (configuration not stated) , GI50: > 100 µM (inactive)

====

- System: SN12C
- TEST: NCI tumour cell line growth inhibition, 48 h
Calls of active or inactive are those of the source. Cut-off read from the data, not from the text of the source: active = GI50 up to about 1.1 µM and inactive = higher.
Could you please pick one outcome from this set? active, inactive

// query What did this assay record as the result for COc1cc(OC)c2c(=O)c3cccc(C)c3n(C)c2c1 ?
// result inactive

// query What did this assay record as the result for COc1ccc(OCC(=N/NC(=O)c2ccncc2)/N=C/c2ccncc2)cc1 ?
// result inactive

// query What did this assay record as the result for Cc1ccc(S(=O)(=O)NCCCSCCSCCCN)cc1 ?
// result inactive

// query What did this assay record as the result for CC1NS(=O)(=O)N(C)C1=O (centres undefined) ?
// result inactive

// query What did this assay record as the result for CC12OC3CC(O1)C1(C=O)C4CCC5(C)C(c6ccc(=O)oc6)CCC5(O)C4CCC1(C3)O2 (centres undefined) ?
// result active

// query What did this assay record as the result for CC1=NN(C(=O)CC(=O)Nc2ccc(C)cc2)C(=O)C1/N=N/c1ccc(C(=O)O)cc1 (centres undefined) ?
// result inactive

// query What did this assay record as the result for N#Cc1c(C#N)c(-c2ccccc2)n(/N=C\c2ccccc2)c1N ?
// result inactive

// query What did this assay record as the result for CC(C)Oc1cccc(N2C(NCc3c[nH]c4ccccc34)=Nc3ccncc3S2(=O)=O)c1 ?
// result inactive

// query What did this assay record as the result for COc1ccc(-c2nc(Sc3c([N+](=O)[O-])ncn3C)n[nH]2)cc1 ?
// result inactive

// query What did this assay record as the result for C#CCOCn1cnc2c(Sc3c([N+](=O)[O-])ncn3C)ncnc21 ?
// result inactive

// query What did this assay record as the result for CC(C)(NO)/C(=N\O)c1ccccc1 ?
// result inactive

// query What did this assay record as the result for CCC/N=C(/NC(=O)c1ccc(Cl)cc1)SC ?
// result inactive

// query What did this assay record as the result for Fc1ccc(C2SCc3nc4ccccc4n32)c(F)c1 (centres undefined) ?
// result inactive

// query What did this assay record as the result for c1cc(CCN2CCCCC2)ccn1 ?
// result inactive

// query What did this assay record as the result for CC(=O)Oc1cc(Cl)c(OC(C)=O)c2c(OC(C)=O)c(C)c(O[Si](C)(C)C(C)(C)C)cc12 ?
// result inactive

// query What did this assay record as the result for OC(c1cc(-c2ccc(Cl)cc2)nc2ccccc12)C1CCCCN1 (centres undefined) ?
// result inactive

// query What did this assay record as the result for COC(C(=O)C(O)C(C)O)C1CC2C=C3C=C(OC4CC(OC5CC(O)C(OC)C(C)O5)C(OC(C)=O)C(C)O4)C(C)C(O)=C3C(O)=C2C(=O)C1OC1CC(OC2CC(OC3CC(C)(O)C(OC(=O)C(C)C)C(C)O3)C(O)C(C)O2)C(O)C(C)O1 (centres undefined) ?
// result active

// query What did this assay record as the result for Nc1nc(-c2cccc([N+](=O)[O-])c2)cc(-c2cc(-c3cccc([N+](=O)[O-])c3)nc(N)n2)n1 ?
// result inactive

// query What did this assay record as the result for COC(CNC(=O)C(C)NC(=O)C(C)NC(=O)c1ccccc1)OC (centres undefined) ?
// result inactive

// query What did this assay record as the result for CN(C)c1ccc(/C=C2\N=C(N/N=C/c3ccc(N(C)C)cc3)NC2=O)cc1 ?
// result inactive

// query What did this assay record as the result for CC(=O)OC[C@]1(C)CCCC2(C)C1CCC1C=C(C)[C@H]3CCC12C3 (some centres undefined) ?
// result inactive

// query What did this assay record as the result for S=c1sc2c(s1)SCCCCSCCCCSc1sc(=S)sc1SCCCCSCCCCS2 ?
// result inactive

// query What did this assay record as the result for CCN(CC)C1Oc2cc3c(cc2C(c2cc(OC)c(OC)c(OC)c2)C1C)OCO3 (centres undefined) ?
// result inactive

// query What did this assay record as the result for Cc1ccsc1/C=N/Nc1ccccn1 ?
// result inactive

// query What did this assay record as the result for O=C(O)C/C(=C\c1ccco1)C(=O)O ?
// result inactive

// query What did this assay record as the result for N#Cc1ccc(Nc2nc3[nH]cnc3c(=O)[nH]2)cc1 ?
// result inactive

// query What did this assay record as the result for N#Cc1ccc(C2NN=CC23C(=O)c2ccccc2OC3c2ccccc2)cc1 (centres undefined) ?
// result inactive

// query What did this assay record as the result for COC(=O)C1CCCN1C(=O)C(Cc1cn(S(=O)(=O)c2ccc(C)cc2)cn1)NC(=O)OC(C)(C)C (centres undefined) ?
// result inactive

// query What did this assay record as the result for CCOc1ccccc1NC(=O)CCc1nnc2s/c(=C\CCc3ccccc3)c(=O)n12 ?
// result inactive

// query What did this assay record as the result for CC(C)(Br)C(=O)C(Br)Br ?
// result inactive

// query What did this assay record as the result for Oc1c(/N=N\c2ccccc2)c2cccc3ccc4cccc1c4c32 ?
// result inactive

// query What did this assay record as the result for COc1ccc2nc3c(C(=O)NCCN(C)C)cccc3nc2c1 ?
// result inactive

// query What did this assay record as the result for N#Cc1c2nc3ccccc3nc2n2ccccc12 ?
// result inactive

// query What did this assay record as the result for C=C1C(=O)OC2/C=C(/CO)C3(O)CC(O)C(C)(CC(OC(=O)/C(C)=C/C)C12)O3 (centres undefined) ?
// result inactive

// query What did this assay record as the result for CN(C)CCNc1nc2c(no[n+]2[O-])c2ccccc12.[O-][Cl+3]([O-])([O-])O ?
// result inactive

// query What did this assay record as the result for CCN(CC(=O)O)CC(=O)O ?
// result inactive

// query What did this assay record as the result for Cc1cc(C(C)(C)C)cc(CNC2CCCCC2)c1O ?
// result inactive

// query What did this assay record as the result for CCN(CC)Cc1nc2sc3c(c2c(=O)n1-c1ccccc1)CCCC3 ?
// result inactive

// query What did this assay record as the result for COc1cccc(OC)c1C(=O)OCc1ccccc1 ?
// result inactive

// query What did this assay record as the result for CC(=O)Oc1c(-c2ccccc2)oc2ccccc12 ?
// result inactive

// query What did this assay record as the result for COc1cc(OC)cc(Oc2nc3ccccc3nc2C(F)(F)F)c1 ?
// result inactive

// query What did this assay record as the result for Cc1ccc(S(=O)(=O)N2c3ccccc3[C@H]3CCC=C[C@H]32)cc1 ?
// result inactive

// query What did this assay record as the result for O=C1C(=C(C(F)(F)Cl)C(F)(F)Cl)C2CCC1C2 (centres undefined) ?
// result inactive

// query What did this assay record as the result for O=S1(=O)C[C@@H](O)[C@H](O)CS1 ?
// result inactive
